biological target: UniProt:P60842
Sequence (P60842 whole entry): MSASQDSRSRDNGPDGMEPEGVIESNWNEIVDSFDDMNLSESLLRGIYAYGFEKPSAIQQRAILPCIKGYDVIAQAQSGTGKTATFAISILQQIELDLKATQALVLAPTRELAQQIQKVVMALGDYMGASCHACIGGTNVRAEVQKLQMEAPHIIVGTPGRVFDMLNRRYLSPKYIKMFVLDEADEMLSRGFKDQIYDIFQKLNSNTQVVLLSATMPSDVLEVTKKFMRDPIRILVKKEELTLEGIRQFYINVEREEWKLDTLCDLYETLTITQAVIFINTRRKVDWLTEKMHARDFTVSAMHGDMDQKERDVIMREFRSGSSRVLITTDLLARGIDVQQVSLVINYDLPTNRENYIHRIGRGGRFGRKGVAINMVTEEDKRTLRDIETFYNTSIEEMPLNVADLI
measurement-type: Kd (nM)
Numbers only, in nM.

Give the reported value of Kd for this record: C=C1C[C@H](O)[C@H](Br)C(C)(C)[C@@]12CCC(C)=C(Cl)C2 1980

###

target: UniProtKB P60842
measurement-type: IC50 (µM)
One number for each entry, in µM.

Give the reported value of IC50 for this record: C=C1C[C@H](O)[C@H](Br)C(C)(C)[C@@]12CCC(C)=C(Cl)C2 16.4
